Provide the recorded pIC50 for the entries that follow.
Tested on: A549
Test name: MTT cell proliferation assay, A549
Assay type: cell-based
Condition context: Homo sapiens, 48 h, read-out: In vitro cytotoxic activity IC50, A549
Protocol: Compounds 5a–o were evaluated for their cytotoxic activity in vitro against some human cancer cell lines, including A549, HCC1937 and MDA-MB-468 by applying a MTT colorimetric assay. Doxorubicin was used as positive control. The calculated IC50 values were reported differently according to the different cancer cells. […]
Remember, pIC50 is on a log scale: it is -log10 of the molar concentration.

Inquiry: Name the reported pIC50 value associated with the compound COc1cccc2c1C(=O)c1c(O)c3c(c(O)c1C2=O)C[C@@](O)(C(=O)CO)C[C@@H]3O[C@H]1C[C@H](N)[C@H](O)[C@H](C)O1 [Doxorubicin, reference compound]
Reply text: 5.60

Inquiry: Name the reported pIC50 value associated with the compound CN1CCN(S(=O)(=O)c2ccc3c(c2)[nH]c(=O)n3CCc2ccccc2)CC1 [5l]
Reply text: 4.82

Inquiry: Name the reported pIC50 value associated with the compound O=c1[nH]c2cc(S(=O)(=O)N3CCOCC3)ccc2n1Cc1ccccc1 [5a]
Reply text: 5.28

Inquiry: Name the reported pIC50 value associated with the compound O=c1[nH]c2cc(S(=O)(=O)NC3CCCCC3)ccc2n1Cc1ccccc1 [5c]
Reply text: 4.06
